Target: T1, anti-CD28 scFv (VH - linker 1 - VL) (biotinylated (site not given))
T1 construct: Biotinylated scFv captured on neutravidin coated plates in the panning ELISA
T1 sequence (scFv, as listed by the source): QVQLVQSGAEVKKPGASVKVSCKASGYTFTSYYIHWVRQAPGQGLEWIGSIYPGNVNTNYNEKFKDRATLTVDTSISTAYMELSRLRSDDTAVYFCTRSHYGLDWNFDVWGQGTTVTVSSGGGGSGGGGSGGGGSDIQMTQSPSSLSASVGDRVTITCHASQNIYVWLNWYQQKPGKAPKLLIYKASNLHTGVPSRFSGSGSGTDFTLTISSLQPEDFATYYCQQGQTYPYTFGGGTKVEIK
Experiment: phage ELISA as above; wells pre-incubated with soluble CD28 as competitor;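 also: crude clonal phage supernatants tested, with bound phage detected by HRP-conjugated anti-M13 antibody, and reference wells given blocking buffer without CD28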
Where no end group is shown, it is not given here.
recordedEndpoint: CD28 scFv signal in presence of CD28
Give a plain numeric answer without units written out.

Task item: Input MDWCPRYLWNMCFH (cysteine pairing not given here; also: displayed on phage as fusion to pIII, linker not given here) [Phage-99] , output reported CD28 scFv signal in presence of CD28.
Reply: 0.404

Task item: Determine from records and report CD28 scFv signal in presence of CD28 for MDWCPRYLWDECFN (cysteine pairing not given here; also: phage-displayed pIII fusion, pIII and linker not given here) [Phage-110]
Reply: 0.283

Task item: Provide one value: measured CD28 scFv signal in presence of CD28 of MDWCPRDLWYACFA (cysteine pairing not given here; also: phage-displayed pIII fusion, pIII and linker not given here) [Phage-116]
Reply: 0.242

Task item: Read off the recorded CD28 scFv signal in presence of CD28 for MDWCPRFLWSECFN (cysteine pairing not given here; also: displayed on phage as fusion to pIII, linker not given here, also called position columns give F at position 7)) [Phage-95]
Reply: 0.227

All figures here come from patent US20260242478A1.
